measurement.target: Polyamine deacetylase HDAC10 (Homo sapiens)
Sequence (Q969S8 whole entry): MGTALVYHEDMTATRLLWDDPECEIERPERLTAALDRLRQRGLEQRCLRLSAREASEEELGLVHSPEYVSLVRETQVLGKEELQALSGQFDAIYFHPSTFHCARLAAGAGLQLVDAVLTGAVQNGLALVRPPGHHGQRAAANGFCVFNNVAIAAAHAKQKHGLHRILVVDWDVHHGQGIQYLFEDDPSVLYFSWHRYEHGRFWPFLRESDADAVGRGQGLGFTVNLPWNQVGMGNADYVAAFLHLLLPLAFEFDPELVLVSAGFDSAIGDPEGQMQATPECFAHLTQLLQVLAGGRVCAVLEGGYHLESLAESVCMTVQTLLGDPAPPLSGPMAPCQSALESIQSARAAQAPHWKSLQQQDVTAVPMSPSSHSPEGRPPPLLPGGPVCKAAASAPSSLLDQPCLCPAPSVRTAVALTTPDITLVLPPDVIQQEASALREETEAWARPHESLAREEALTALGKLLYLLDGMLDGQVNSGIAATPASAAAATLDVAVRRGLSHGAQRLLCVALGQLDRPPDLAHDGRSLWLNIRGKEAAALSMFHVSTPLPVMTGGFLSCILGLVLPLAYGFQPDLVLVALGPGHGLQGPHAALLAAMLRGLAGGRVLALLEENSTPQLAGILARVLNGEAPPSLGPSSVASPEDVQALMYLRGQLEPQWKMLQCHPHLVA
endpoint.name: pIC50
Keep it numeric: pIC50 is minus log10 of the concentration in mol/L.

Name the recorded pIC50 for COc1ccccc1/C=C1\CC(=O)N(CCCCCCC(=O)NO)C1=O .
7.14

###

experimental.details: Half life in Sprague-Dawley rat at 10 mg/kg, po measured upto 24 hrs by LC-MS/MS analysis
Assay type: ADME, organism-based
condition.details: in vivo
endpoint.name: half-life (h)
Quick reminder: number only, in h, skip the unit.

Name the recorded half-life for COc1ccccc1/C=C1\CC(=O)N(CCCCCCC(=O)NO)C1=O .
2.87

###

experimental.details: Oral bioavailability in Sprague-Dawley rat at 10 mg/kg measured upto 24 hrs by LC-MS/MS analysis
Assay type: ADME, organism-based
condition.details: in vivo
endpoint.name: bioavailability
Kindly format the answer as number then unit.

Name the recorded bioavailability for COc1ccccc1/C=C1\CC(=O)N(CCCCCCC(=O)NO)C1=O .
46.5%

###

experimental.details: AUC (0 to infinity) in Sprague-Dawley rat at 2 mg/kg, iv measured upto 24 hrs by LC-MS/MS analysis
Type: ADME, organism-based
condition.details: in vivo
endpoint.name: AUC(0-inf) (ng·h/mL)
Quick reminder: number only, in ng·h/mL, skip the unit.

Name the recorded AUC(0-inf) for COc1ccccc1/C=C1\CC(=O)N(CCCCCCC(=O)NO)C1=O .
1630

###

experimental.details: Cmax in Sprague-Dawley rat at 10 mg/kg, po measured upto 24 hrs by LC-MS/MS analysis
Assay type: ADME, organism-based
condition.details: in vivo
endpoint.name: Cmax (ng/mL)
Quick reminder: number only, in ng/mL, skip the unit.

Name the recorded Cmax for COc1ccccc1/C=C1\CC(=O)N(CCCCCCC(=O)NO)C1=O .
774

###

measurement.target: UniProt Q9UQL6
Sequence (Q9UQL6 whole entry): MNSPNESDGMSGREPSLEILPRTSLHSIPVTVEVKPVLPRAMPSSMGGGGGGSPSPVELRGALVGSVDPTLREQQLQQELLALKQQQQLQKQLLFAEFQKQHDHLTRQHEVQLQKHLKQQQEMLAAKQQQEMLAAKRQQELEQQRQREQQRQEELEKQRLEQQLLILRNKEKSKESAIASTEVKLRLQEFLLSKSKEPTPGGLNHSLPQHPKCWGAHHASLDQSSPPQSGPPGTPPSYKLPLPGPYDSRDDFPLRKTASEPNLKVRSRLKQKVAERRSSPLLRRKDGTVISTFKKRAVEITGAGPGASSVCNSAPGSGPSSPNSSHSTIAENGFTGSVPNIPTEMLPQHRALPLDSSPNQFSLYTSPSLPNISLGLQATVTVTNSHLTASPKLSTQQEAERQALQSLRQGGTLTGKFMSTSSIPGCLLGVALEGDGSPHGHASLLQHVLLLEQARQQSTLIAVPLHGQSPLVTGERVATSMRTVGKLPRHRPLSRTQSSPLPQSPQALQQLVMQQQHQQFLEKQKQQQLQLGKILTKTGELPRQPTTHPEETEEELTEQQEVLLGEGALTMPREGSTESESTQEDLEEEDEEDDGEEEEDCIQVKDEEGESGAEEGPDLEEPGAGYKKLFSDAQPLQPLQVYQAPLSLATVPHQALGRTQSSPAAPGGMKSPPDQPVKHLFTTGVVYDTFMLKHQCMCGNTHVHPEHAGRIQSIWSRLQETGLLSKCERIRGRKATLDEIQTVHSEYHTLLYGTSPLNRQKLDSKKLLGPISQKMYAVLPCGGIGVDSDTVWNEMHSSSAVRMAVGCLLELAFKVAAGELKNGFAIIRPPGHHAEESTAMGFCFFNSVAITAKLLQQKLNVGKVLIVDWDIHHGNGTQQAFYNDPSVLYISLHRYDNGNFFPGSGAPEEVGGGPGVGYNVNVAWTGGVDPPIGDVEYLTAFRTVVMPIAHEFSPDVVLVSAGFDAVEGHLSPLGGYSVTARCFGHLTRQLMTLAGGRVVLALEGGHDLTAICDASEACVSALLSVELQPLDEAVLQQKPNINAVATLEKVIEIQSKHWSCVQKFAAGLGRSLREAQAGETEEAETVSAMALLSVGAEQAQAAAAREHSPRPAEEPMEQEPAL
endpoint.name: IC50

Name the recorded IC50 for COc1ccccc1/C=C1\CC(=O)N(CCCCCCC(=O)NO)C1=O .
> 5 µM

###

Here, each record is paired with measured IC50 data.
Tested on: PC-3
experimental.details: Antiproliferative activity against human PC-3 cells incubated for 96 hrs by MTT assay
Assay type: functional, cell-based
condition.details: PC-3, 96 h
Quick reminder: number only, in µM, skip the unit.

Use these answered entries as a reference point.
Param readout= IC50; system= PC-3; entry= O=C(CCCCCCN1C(=O)C/C(=C\c2ccc(Cl)c(Cl)c2)C1=O)NO ; returns value.
1.69

Param readout= IC50; system= PC-3; entry= O=C(CCCCCCN1C(=O)C/C(=C\c2ccccc2)C1=O)NO ; returns value.
0.82

Further cases:
Param readout= IC50; system= PC-3; entry= COc1ccccc1/C=C1\CC(=O)N(CCCCCCC(=O)NO)C1=O ; returns value.
0.72

###

Here's what we have: pIC50 numbers for Histone deacetylase 1 (Homo sapiens).
Keep it numeric: pIC50 is minus log10 of the concentration in mol/L.

Use these answered entries as a reference point.
Name the recorded pIC50 for COc1ccc(/C=C2\CC(=O)N(CCCCCCC(=O)NO)C2=O)cc1 .
7.89

Name the recorded pIC50 for Nc1cc(F)ccc1NC(=O)CCCN1C(=O)C/C(=C\c2ccccc2)C1=O .
6.64

Further cases:
Name the recorded pIC50 for CC(C)c1ccc(/C=C2\CC(=O)N(CCCCCCC(=O)NO)C2=O)cc1 .
7.54

Name the recorded pIC50 for Cc1ccccc1/C=C1\CC(=O)N(CCCCCCC(=O)NO)C1=O .
7.66

Name the recorded pIC50 for Nc1cc(F)ccc1NC(=O)CCCCN1C(=O)C/C(=C\c2ccccc2)C1=O .
6.76

###

Test system: PC-3
experimental.details: Antiproliferative activity against human PC-3 cells incubated for 96 hrs by MTT assay
Assay type: functional, cell-based
condition.details: PC-3, 96 h
endpoint.name: IC50

Use these answered entries as a reference point.
Name the recorded IC50 for Nc1cc(F)ccc1NC(=O)CCCCCCN1C(=O)C/C(=C\c2ccccc2)C1=O .
> 20000 nM

Name the recorded IC50 for Cc1ccc(/C=C2\CC(=O)N(CCCCCCC(=O)NO)C2=O)cc1 .
2200 nM

Name the recorded IC50 for O=C(CCCCCCN1C(=O)C/C(=C\c2cccc(Cl)c2)C1=O)NO .
1700 nM

Further cases:
Name the recorded IC50 for O=C(CCCCCCCN1C(=O)C/C(=C\c2ccccc2)C1=O)NO .
5010 nM

Name the recorded IC50 for Cc1ccccc1/C=C1\CC(=O)N(CCCCCCC(=O)NO)C1=O .
930 nM

###

Here, each record is paired with measured IC50 data.
System: PC-3
experimental.details: Antiproliferative activity against human PC-3 cells incubated for 96 hrs by MTT assay
Type: functional, cell-based
condition.details: PC-3, 96 h

Use these answered entries as a reference point.
Name the recorded IC50 for Nc1cc(F)ccc1NC(=O)CCCN1C(=O)C/C(=C\c2ccccc2)C1=O .
> 20 µM

Name the recorded IC50 for Nc1cc(F)ccc1NC(=O)CCCCN1C(=O)C/C(=C\c2ccccc2)C1=O .
> 20 µM

Attention now shifts to the item below.
Name the recorded IC50 for O=C(CCCN1C(=O)C/C(=C\c2ccccc2)C1=O)NO .
> 20 µM

###

System: PC-3
experimental.details: Antiproliferative activity against human PC-3 cells incubated for 96 hrs by MTT assay
Assay type: functional, cell-based
condition.details: PC-3, 96 h
endpoint.name: pIC50
Keep it numeric: pIC50 is minus log10 of the concentration in mol/L.

Use these answered entries as a reference point.
Name the recorded pIC50 for O=C(CCCCCCN1C(=O)C/C(=C\c2cccc(F)c2)C1=O)NO .
6.05

Name the recorded pIC50 for CC(C)c1ccc(/C=C2\CC(=O)N(CCCCCCC(=O)NO)C2=O)cc1 .
5.74

Name the recorded pIC50 for O=C(CCCCCCN1C(=O)C/C(=C\c2ccccc2Cl)C1=O)NO .
5.84

Attention now shifts to the item below.
Name the recorded pIC50 for COc1cc(/C=C2\CC(=O)N(CCCCCCC(=O)NO)C2=O)cc(OC)c1OC .
5.77
